biological target: UniProt:Q14524; assay: Sodium Influx Assay (Flux), NaV1.5; conditions: read-out: Flux NaV1.5 IC50; Trex HEK293 cells, ANG2 dye, inactivated state
Sequence (Q14524 other isoform, or with tags, fused parts or gaps): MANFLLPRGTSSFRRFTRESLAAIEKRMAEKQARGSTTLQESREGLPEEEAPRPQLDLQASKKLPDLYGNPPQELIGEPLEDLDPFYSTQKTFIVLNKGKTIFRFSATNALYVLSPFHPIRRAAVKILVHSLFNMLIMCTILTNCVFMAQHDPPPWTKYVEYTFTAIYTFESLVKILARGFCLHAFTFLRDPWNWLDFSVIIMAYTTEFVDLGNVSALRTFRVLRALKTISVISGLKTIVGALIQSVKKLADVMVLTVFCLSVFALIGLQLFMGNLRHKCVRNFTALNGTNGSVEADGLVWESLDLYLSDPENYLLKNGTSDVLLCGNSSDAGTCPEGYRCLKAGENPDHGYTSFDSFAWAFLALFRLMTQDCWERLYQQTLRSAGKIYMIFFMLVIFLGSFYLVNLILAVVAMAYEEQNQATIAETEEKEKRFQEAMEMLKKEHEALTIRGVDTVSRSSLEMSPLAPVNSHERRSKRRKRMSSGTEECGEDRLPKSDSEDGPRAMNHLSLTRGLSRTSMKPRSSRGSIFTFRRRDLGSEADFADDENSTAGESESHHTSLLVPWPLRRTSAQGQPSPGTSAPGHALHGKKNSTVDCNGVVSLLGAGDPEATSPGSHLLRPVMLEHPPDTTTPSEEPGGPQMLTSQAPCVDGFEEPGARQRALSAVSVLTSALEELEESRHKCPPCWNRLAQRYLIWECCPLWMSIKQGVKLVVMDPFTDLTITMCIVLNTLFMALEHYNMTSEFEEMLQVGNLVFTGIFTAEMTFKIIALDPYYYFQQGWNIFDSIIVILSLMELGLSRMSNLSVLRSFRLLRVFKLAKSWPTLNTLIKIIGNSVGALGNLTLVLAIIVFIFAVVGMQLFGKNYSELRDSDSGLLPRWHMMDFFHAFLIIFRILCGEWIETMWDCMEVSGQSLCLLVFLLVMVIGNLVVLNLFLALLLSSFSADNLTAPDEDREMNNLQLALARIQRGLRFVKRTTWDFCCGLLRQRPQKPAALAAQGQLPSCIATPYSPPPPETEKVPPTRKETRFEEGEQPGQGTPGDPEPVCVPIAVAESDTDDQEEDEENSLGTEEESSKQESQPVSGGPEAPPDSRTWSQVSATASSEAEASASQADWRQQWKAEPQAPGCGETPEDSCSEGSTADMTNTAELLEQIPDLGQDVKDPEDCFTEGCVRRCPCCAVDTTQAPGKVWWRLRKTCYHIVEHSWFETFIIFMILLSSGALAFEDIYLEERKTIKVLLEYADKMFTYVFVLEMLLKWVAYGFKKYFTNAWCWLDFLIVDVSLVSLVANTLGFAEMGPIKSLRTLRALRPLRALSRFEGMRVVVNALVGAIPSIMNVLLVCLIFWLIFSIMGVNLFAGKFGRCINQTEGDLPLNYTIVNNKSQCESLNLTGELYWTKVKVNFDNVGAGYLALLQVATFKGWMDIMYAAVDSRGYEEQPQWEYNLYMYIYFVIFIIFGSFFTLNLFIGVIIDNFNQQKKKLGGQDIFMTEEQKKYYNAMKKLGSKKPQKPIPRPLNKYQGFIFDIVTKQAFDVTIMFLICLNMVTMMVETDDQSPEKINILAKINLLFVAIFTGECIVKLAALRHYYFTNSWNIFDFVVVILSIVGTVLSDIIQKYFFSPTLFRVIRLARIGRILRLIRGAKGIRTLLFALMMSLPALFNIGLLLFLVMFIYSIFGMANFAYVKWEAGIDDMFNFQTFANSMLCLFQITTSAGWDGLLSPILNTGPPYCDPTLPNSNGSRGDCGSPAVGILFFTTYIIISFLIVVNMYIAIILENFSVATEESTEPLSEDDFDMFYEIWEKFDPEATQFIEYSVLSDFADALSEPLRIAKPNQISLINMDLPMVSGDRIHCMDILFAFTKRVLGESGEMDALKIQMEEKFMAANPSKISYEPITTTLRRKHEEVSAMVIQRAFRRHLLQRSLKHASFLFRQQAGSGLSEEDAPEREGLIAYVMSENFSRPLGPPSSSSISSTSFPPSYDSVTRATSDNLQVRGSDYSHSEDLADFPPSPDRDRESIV
Counter-ions that a name gives are not always drawn.
Known IC50 of a selection of compounds
Parameter: IC50 (µM)

| Compound | Value Reported |
| --- | --- |
| COC[C@H]1CCCN1Cc1cccc(F)c1CNc1cc(F)c(S(=O)(=O)Nc2cscn2)c(F)c1 [Example 154, formate] | 30 |
| O=S(=O)(Nc1nccs1)c1cc(Cl)c(O[C@H](c2ccccc2)C(F)(F)F)cc1F [Example 80] | 5.75 |
| COC1CN(Cc2cccc(F)c2CNc2cc(F)c(S(=O)(=O)Nc3cscn3)cc2Cl)C1 [Example 248, 2,2,2-trifluoroacetate] | 26.5 |
| CC(C)C[C@@H](Nc1cc(F)c(S(=O)(=O)Nc2nccs2)cc1Cl)c1ccccc1 [Example 110] | 3.15 |
| CC[C@H](Nc1cc(F)c(S(=O)(=O)Nc2cccc(F)n2)cc1Cl)c1ccccc1F [Example 316] | 5.86 |
| O=S(=O)(Nc1cscn1)c1c(F)cc(NCc2c(F)cccc2CN2CC3(C2)CC3(F)F)cc1F [Example 163] | 30 |
| O=S(=O)(Nc1cscn1)c1cc(Cl)c(NCc2cc(F)c(F)cc2CN2CCC2)cc1F [Example 193, formate] | 26.7 |
